system: COL20A1
experimentSummary: pooled miR-30 sensor sort-seq; sequence = guide strand; note: reference of the scale not given here
measurementSetup: shRNA
Given measured sensor-assay potency score (higher = more potent), output y if it is greater than or equal to -0.4 and n if not.

{"sequenceRecord": "TCAATCACAAACTCCCTCCGAG", "assignedClass": "y"}
{"sequenceRecord": "TAGACAAGCACGCCAGACGGGG", "assignedClass": "n"}
{"sequenceRecord": "TAGACGTCACTGACCCGTCTTG", "assignedClass": "n"}
{"sequenceRecord": "TATCTGAACTTGGAAATGCTAC", "assignedClass": "n"}
{"sequenceRecord": "TTGAACTTGCTCTCTTCCCAGG", "assignedClass": "n"}
{"sequenceRecord": "TTGAAGAGCGTGAAGGTCGGGG", "assignedClass": "y"}
{"sequenceRecord": "TAGAGCCTGACCTTGGAGCGGC", "assignedClass": "y"}

* * *

system: MRS2
experimentSummary: pooled miR-30 sensor sort-seq; sequence = guide strand
measurementSetup: shRNA
endpoint: sensor-assay potency score (higher = more potent)

{"sequenceRecord": "TAATATCTGTTTCTAACTCTGA", "valueMeasured": -0.212}
{"sequenceRecord": "TAATATCAGAAGACACTCTGGA", "valueMeasured": 0.725}
{"sequenceRecord": "TTAATATCTGTTTCTAACTCTG", "valueMeasured": 0.197}
{"sequenceRecord": "TTCCATGCTTCTATCTGCCAGA", "valueMeasured": -0.489}
{"sequenceRecord": "TAAACCGGTGCACTTCACCTGC", "valueMeasured": -0.316}
{"sequenceRecord": "TAGCAACTCTTCCTCATCCAAG", "valueMeasured": -1}
{"sequenceRecord": "TGTGATACTCATTACATGCTGA", "valueMeasured": 0.129}
{"sequenceRecord": "TGAATCATCAATCAGCACCCTA", "valueMeasured": -0.284}
{"sequenceRecord": "TACACAGAGCTCTTCTAGCAAC", "valueMeasured": -1.3}

* * *

system: ATP6V0A1
experimentSummary: pooled miR-30 sensor sort-seq; sequence = guide strand
measurementSetup: shRNA
endpoint: sensor-assay potency score (higher = more potent)

{"sequenceRecord": "TTTCTGTCCAGAATACAACATT", "valueMeasured": -0.792}
{"sequenceRecord": "TTATTCTGGAACTCAACCCAGT", "valueMeasured": 0.03}
{"sequenceRecord": "TATAAGTAAACATCGGCCGTAC", "valueMeasured": 0.244}
{"sequenceRecord": "TTTCTCAACAAATCGAAGCTTT", "valueMeasured": 0.0812}

* * *

// reported sensor-assay potency score (higher = more potent) for each item listed
system: SCAF4
experimentSummary: pooled miR-30 sensor sort-seq; sequence = guide strand
measurementSetup: shRNA
endpoint: sensor-assay potency score (higher = more potent)

{"sequenceRecord": "TTTAATAGCAGCTTTAGTGATG", "valueMeasured": -0.529}
{"sequenceRecord": "TACTATTTGAACTACATGCTTA", "valueMeasured": 0.0032}
{"sequenceRecord": "TTGTCTGAAACAGCTGAGCCAC", "valueMeasured": -1.31}
{"sequenceRecord": "TTACACTTTTTGATGAACTTTT", "valueMeasured": -0.768}
{"sequenceRecord": "TTTCTTGAGATCGAGATCGGGG", "valueMeasured": -0.563}
{"sequenceRecord": "TAGTACTGCAAACACTTGCAGT", "valueMeasured": -0.842}
